# protocol summary: NFAT Signaling Pathway (AID 444);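 further: carbachol stimulus at about its EC50 of 1 µM final; on the % scale 0 is the no-effect control and ±100 the full control effect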
# applied conditions: Jurkat NFAT-bla M1, carbachol, beta-lactamase ratio, 5 h; at 7.69 µM (top of the series) unless noted
Inconclusive results are not listed.
measured property: activity change, negative = inhibition (%)
Return type: number; implicit unit %.

>>> print(df.to_string())
                           smiles_input                       measured_property   val
0   Cc1nc2cnc(Oc3ccccc3)nc2n(CCC#N)c1=O  activity change, negative = inhibition  -8.6
1  COc1ccc(CNc2ncncc2-c2ccccc2C)c(OC)c1  activity change, negative = inhibition  5.66
2       Cc1nc2cncnc2n(Cc2ccc(F)cc2)c1=O  activity change, negative = inhibition  9.35

// next item, activity change, negative = inhibition requested
Ask | State the recorded activity change, negative = inhibition for this entry: Cc1cnc(CNc2cc(-c3ccc(C(=O)N(C)C)cc3)ncn2)cn1
Reply | 15.2

----------
# target system: Dual specificity protein kinase CLK4 (Homo sapiens) (UniProt Q9HAZ1)
# Sequence (Q9HAZ1 whole entry, looked up): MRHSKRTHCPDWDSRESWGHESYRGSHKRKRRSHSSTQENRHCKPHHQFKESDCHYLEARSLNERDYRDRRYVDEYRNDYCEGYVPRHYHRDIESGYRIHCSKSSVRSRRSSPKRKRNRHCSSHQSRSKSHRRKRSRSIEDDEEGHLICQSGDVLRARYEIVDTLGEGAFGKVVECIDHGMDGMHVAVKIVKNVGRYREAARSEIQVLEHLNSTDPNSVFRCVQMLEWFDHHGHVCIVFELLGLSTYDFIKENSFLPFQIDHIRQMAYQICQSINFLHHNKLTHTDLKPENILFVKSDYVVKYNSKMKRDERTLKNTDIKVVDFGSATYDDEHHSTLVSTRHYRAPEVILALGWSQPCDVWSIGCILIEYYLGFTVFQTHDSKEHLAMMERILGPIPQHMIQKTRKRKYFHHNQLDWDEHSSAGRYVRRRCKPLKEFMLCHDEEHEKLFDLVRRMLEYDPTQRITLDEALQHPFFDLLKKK
# protocol summary: qHTS Assay for Inhibitors of CDC-like Kinase 4 (ADP-Glo Assay) (AID 1771); further: nearly all actives have a fitted effect of over 70% in size
# applied conditions: recombinant CLK4, ADP-Glo luminescence; series mostly up to 80 µM
Inconclusive results are not listed. Activity calls are given as the source filed them. Calls follow the shape of the dose curve; as a rule, active = well fitted inhibition curve with a large enough effect; inconclusive = small, poorly fitted or top-dose-only effect; inactive = flat fitted curve, though single readings scatter.
Classes to choose from: YES = active, NO = inactive

Ask | Dear colleague, could you share the recorded outcome for COc1ccc(CNc2ncncc2-c2ccccc2C(F)(F)F)c(OC)c1 when you have a moment?
Reply | NO

Ask | Status in this test for O=c1c(-c2cccc(Cl)c2)nc2cncnc2n1-c1ccccc1 ?
Reply | NO

Ask | Lab log entry: COc1ccccc1-c1ccc2ncnc(NCc3ccccc3)c2c1 — outcome as called in the assay?
Reply | YES

----------
Catalogue of activation readings, one per entry.
# protocol summary: qHTS Assay for Identification of Small Molecule Agonists for Hypoxia Response Element Signaling Pathway (AID 914); further: % of control where 0% means no effect
# applied conditions: ME-180 (cervical carcinoma) HRE-bla reporter, beta-lactamase ratio, CoCl2, 17 h; stronger effect = higher value
# From the text: NIH Molecular Libraries Screening Centers Network [MLSCN] NIH Chemical Genomics Center [NCGC] Hypoxia-inducible factor-1 (HIF-1) is the major hypoxia-regulated transcription factor that controls cellular responses to low oxygen concentration. HIF-1 is composed of two subunits: hypoxia responsive HIF-1 alpha and constitutively expressed HIF-1 beta, which is also known as aryl hydrocarbon receptor nuclear translocator. […]
Results filed as inconclusive are left out.
Output spec: scalar in %, unitless text.

>>> print(df.to_string())
                               smiles_input    val
0  N#CCCn1c(=O)c(-c2cccs2)nc2cnc(N3CCOCC3)nc21   21.6
1  N#Cc1cccc(NC(=O)N2CCCC3(CCN(C(=O)c4cc(C(F)(F)F)cc(C(F)(F)F)c4)CC3)C2)c1  -10.4

Ask | For the compound shown here, c1ccc(C(c2ccccc2)N2CCCC3(CCNCC3)C2)cc1 , give the reported activation.
Reply | 19.3

Ask | Name the recorded activation for CN(C)c1ccc(-c2cncnc2NCc2cccnc2)cc1 .
Reply | 1.46

Ask | Name the reported activation value associated with the compound COc1ccc(-n2c(=O)c(CCc3ccccc3)nc3cnc(N(C)C)nc32)cc1
Reply | 10.3

Ask | What activation value was documented for this compound, N#Cc1cccc(NC(=O)N2CCCC3(CCN(C(=O)c4ccncc4)CC3)C2)c1 ?
Reply | -1.72

Ask | Which value of activation has been reported for COc1ccccc1-c1ccc2ncnc(NC3CC3)c2c1 in the records?
Reply | 27.8

Ask | I'd like to know its activation. The compound in question is COc1ccc(C(=O)N2CCC3(CC2)CCN(c2ccccc2)CC3)cc1
Reply | -13.6

Ask | // query activation value for entry COc1ccc2[nH]cc(CCNc3cc(-c4ccccc4C)ncn3)c2c1
Reply | -7.71

Ask | Form field: reported activation of O=C(c1cc(C(F)(F)F)cc(C(F)(F)F)c1)N1CCC2(CCN(Cc3ccccc3)CC2)CC1
Reply | 4.02

Ask | Item COc1ccccc1CN1CCCC2(CCN(C(=O)c3ccncc3)CC2)C1 has what recorded activation?
Reply | 3.13

Ask | I have this compound here, O=C(c1ccncc1)N1CCC2(CCCN(Cc3ccncc3)C2)CC1 , and I need its recorded activation.
Reply | 2.4

Ask | What does the record list as activation for O=C(c1cnccn1)N1CCC2(CCCN(Cc3ccccc3)C2)CC1 ?
Reply | 16.9

Ask | Value lookup for activation; key = COCC(=O)N1CCC2(CCCN(c3ncccn3)C2)CC1
Reply | 11.9

Ask | Any idea what its activation is? The compound is CN1CCN(c2ncnc3ccc(-c4cccnc4)cc23)CC1
Reply | -3.4

Ask | Please report the recorded activation for N#Cc1cccc(NC(=O)N2CCCC3(CCN(C(=O)c4cnccn4)CC3)C2)c1 .
Reply | 0.071

Ask | Please report the recorded activation for Cc1nc2cnc(N(C)C)nc2n(CCc2ccccc2)c1=O .
Reply | -12

Hey, just so you know, these numbers are from PubChem BioAssay (NCATS).
